Origin of the recorded values: patent US12410160B2

The entries below come with measured pEC50 values attached.
# measured-on: KHK-C expressed in NRK-52E cells (Homo sapiens (Human))
# Sequence (P50053 whole entry): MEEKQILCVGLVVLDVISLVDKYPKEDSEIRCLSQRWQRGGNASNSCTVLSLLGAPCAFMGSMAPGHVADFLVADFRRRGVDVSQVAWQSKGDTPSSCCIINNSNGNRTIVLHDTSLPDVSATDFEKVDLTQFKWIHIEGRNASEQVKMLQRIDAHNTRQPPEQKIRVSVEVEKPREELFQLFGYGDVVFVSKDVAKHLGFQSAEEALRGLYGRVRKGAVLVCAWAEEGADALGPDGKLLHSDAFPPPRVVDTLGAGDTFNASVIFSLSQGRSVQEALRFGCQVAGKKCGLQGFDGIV
# measurement-description: KHK-C Cell-based Assay (EC50), NRK CTG, fructose-mediated ATP-depletion
pEC50: −log10 of the molar value.
assay-endpoint: pEC50

molecule | measured-on | assay-endpoint | sign | reported-value
C[C@H]1CCN1c1nc2c(c(-c3cccc([C@H]4C[C@@H]4C(N)=O)c3)n1)CCC2 (stereo in doubt) | KHK-C expressed in NRK-52E cells (Homo sapiens (Human)) | pEC50 | = | 7.29
CNC(=O)c1cccc(-c2nc(N3CC[C@@H]3C)nc3c2CCC3)c1 | KHK-C expressed in NRK-52E cells (Homo sapiens (Human)) | pEC50 | = | 6.86
C[C@H]1CCN1c1nc2c(c(-c3ccc(C4(N)COC4)cc3)n1)CCC2 | KHK-C expressed in NRK-52E cells (Homo sapiens (Human)) | pEC50 | = | 7.96
C[C@H]1CCN1c1nc2c(c(-c3cccc(C4=CS(=O)(=O)C4)c3)n1)CCC2 | KHK-C expressed in NRK-52E cells (Homo sapiens (Human)) | pEC50 | = | 6.42
C[C@H]1CCN1c1nc2c(c(-c3ccc4c(c3)CCO4)n1)CCC2 | KHK-C expressed in NRK-52E cells (Homo sapiens (Human)) | pEC50 | = | 6.69
C[C@@H]1CCCN1c1nc2c(c(-c3ccc(C(N)=O)cc3)n1)CCC2 | KHK-C expressed in NRK-52E cells (Homo sapiens (Human)) | pEC50 | < | 5.30
C[C@H]1CCN1c1nc2c(c(-c3cc4ccccc4[nH]3)n1)CCC2 | KHK-C expressed in NRK-52E cells (Homo sapiens (Human)) | pEC50 | = | 5.87
C[C@H]1CCN1c1nc2c(c(-c3ccc4cn[nH]c4c3)n1)CCC2 | KHK-C expressed in NRK-52E cells (Homo sapiens (Human)) | pEC50 | = | 6.48
